# Tested on: M14 melanoma
# test-method-notes: NCI-60 one-dose screen, 48 h
# assay-conditions: 10 µM unless noted
The panel holds about 83,000 compounds, 20% with a hit somewhere; the sample as a whole holds those more often. Activity calls are given as the source filed them. Rule for the calls: active = growth percent below 10; inactive = the rest.
Pick from active, inactive when you respond.

Data request: What call does the record list for CCCCC(O)(c1ccc(Cl)cc1)C(CN1CCOCC1)c1ccc(Cl)cc1 (stereo not drawn) ?
Data returned: inactive

Data request: Do the same for COc1ccc(/C=C2/SC(=O)N(CC(=O)N3CCN(c4cc5c(cc4F)c(=O)c(C(=O)O)cn5C4CC4)CC3)C2=O)cc1 please
Data returned: inactive

Data request: Do the same for O=C(NC1CCN(Cc2ccccc2)CC1)c1cc(C(=O)NC2CCN(Cc3ccccc3)CC2)cc(C(=O)NC2CCN(Cc3ccccc3)CC2)c1 please
Data returned: inactive

Data request: Do the same for COC(=O)[C@@H]1CCCN1C(=O)[C@H]1CCCN1C(=O)[C@@H](Cc1c[nH]c2ccccc12)NC(=S)Nc1cc(C(F)(F)F)cc(C(F)(F)F)c1 please
Data returned: inactive

Data request: Do the same for O=NN(C(=O)NC1CCC(C(=O)O)CC1)C1CCC(C(=O)O)CC1 (stereo not drawn) please
Data returned: inactive

Data request: Do the same for O=C(Nc1ccccc1O)c1ccc(Oc2cccc(C(=O)Nc3ccccc3O)c2)cc1 please
Data returned: active

Data request: Do the same for O=c1oc2ccc(F)cc2c(=O)n1-c1ccc(F)cc1F please
Data returned: inactive

Data request: Do the same for Cc1cc(OC(=O)c2ccc([N+](=O)[O-])cc2)nc2[nH]c(=O)sc12 please
Data returned: inactive

Data request: Do the same for CCOC(=O)c1cnc2c(C)cccc2c1Nc1ccc(C(C)=O)cc1 please
Data returned: active

Data request: Do the same for COc1ccc(-c2nsc3c2NC(=O)CC3c2cccc(OC)c2)cc1 (stereo not drawn) please
Data returned: inactive

Data request: Do the same for CN(CCc1ccccc1)C(=S)N(C(=O)c1ccc([N+](=O)[O-])cc1)c1ccc(Cl)cc1 please
Data returned: inactive

Data request: Do the same for CCOC(=O)c1cc2c(n1Cc1ccccc1OC)-c1oncc1CCC2 please
Data returned: inactive

Data request: Do the same for O=C(Nc1ccc(C23CC4CC(CC(c5ccccc5)(C4)C2)C3)cc1)c1cccs1 please
Data returned: inactive
